Where do these numbers come from? They come from ChEMBL document CHEMBL5150005.

Assay: Half life in monkey
Type: ADME, Macaca mulatta
Conditions: rhesus monkey, in vivo

input_smiles	result_units	half-life
CCc1cc2ncc(CN3CCN(c4ccc(C(=O)NC)nc4)CC3)cc2[nH]c1=O	h	7.1

----------
# reported IC50; entries follow
System: DLD-1
Experiment: Antiproliferative activity against human DLD-1 deficient in BRCA-2 cells measured after 7 days
Format: functional, cell-based
Details: Homo sapiens, DLD-1, 168 h

input_smiles	censoring_sign	IC50 (nM)
Cn1ncnc1[C@H]1c2n[nH]c(=O)c3cc(F)cc(c23)N[C@@H]1c1ccc(F)cc1	=	2
Cc1cnc(N2CCN(Cc3ccc4c5c(c(=O)[nH]c4c3)CCCN5)CC2)n1C	=	52
Cc1cnc(N2CCN(Cc3ccc4c(c3)[nH]c(=O)c3ncccc34)CC2)n1C	=	121
CCc1cc2ccc(CN3CCN(c4cnc(C(=O)NC)nc4)CC3)cc2[nH]c1=O	=	2500
O=C(c1cc(Cc2n[nH]c(=O)c3ccccc23)ccc1F)N1CCN(C(=O)C2CC2)CC1	=	42
NC(=O)c1cccc2cn(-c3ccc([C@@H]4CCCNC4)cc3)nc12	=	149
CCc1cc2ccc(CN3CCN(c4ncc(C)n4C)CC3)cc2[nH]c1=O	=	3
O=c1[nH]c(CCCN2CC=C(c3ccc(F)cc3)CC2)nc2c(Cl)cccc12	>	23000
CNCc1ccc(-c2[nH]c3cc(F)cc4c3c2CCNC4=O)cc1	=	27
CCc1nc2ccc(CN3CCN(c4ccc(C(=O)NC)nc4)CC3)cc2[nH]c1=O	=	4
CCc1cc2ncc(CN3CCN(c4ccc(C(=O)NC)nc4)CC3)cc2[nH]c1=O	=	2
CCc1cc2ccc(CN3CCN(c4ccc(F)cc4F)CC3)cc2[nH]c1=O	=	1
NC(=O)c1cc(F)cc2c1C(=O)N(C1CCN(C3CCC(F)(F)CC3)CC1)C2	=	2000
CCc1cc2ccc(CN3CCN(c4ccc(C(=O)NC)nn4)CC3)cc2[nH]c1=O	=	294
CCc1cc2ccc(CN3CCN(c4ccc(C(=O)NC)nc4)CC3)cc2[nH]c1=O	=	3
CCc1cc2cnc(CN3CCN(c4ccc(C(=O)NC)nc4)CC3)cc2[nH]c1=O	=	2
Cc1cnc(N2CCN(Cc3ccc4c(c3)[nH]c(=O)c3cccnc34)CC2)n1C	=	15
CCc1cc2ccc(CN3CCN(c4ccc(C(=O)NC)cc4)CC3)cc2[nH]c1=O	=	7
Cc1cnc(N2CCN(CCCc3nc4c(Cl)cccc4c(=O)[nH]3)CC2)n1C	=	180
CCc1cc2ccc(CN3CCN(c4cnc(C(=O)NC)cn4)CC3)cc2[nH]c1=O	=	4400

----------
Test: in vitro
Conditions: rat, plasma
assay_readout: fraction unbound

input_smiles	assay_readout	readout_value
CCc1cc2ncc(CN3CCN(c4ccc(C(=O)NC)nc4)CC3)cc2[nH]c1=O	fraction unbound	0.032

----------
Assay: Intrinsic clearance in human hepatocytes measured per million of cells
Format: ADME, cell-based, Hepatocyte
Settings: read-out: CLH
# reported hepatocyte CLint; entries follow

input_smiles	hepatocyte CLint
CCc1cc2ncc(CN3CCN(c4ccc(C(=O)NC)nc4)CC3)cc2[nH]c1=O	< 1 µL/min/1e6 cells
CCc1nc2ccc(CN3CCN(c4ccc(C(=O)NC)nc4)CC3)cc2[nH]c1=O	1.9 µL/min/1e6 cells
CCc1cc2cnc(CN3CCN(c4ccc(C(=O)NC)nc4)CC3)cc2[nH]c1=O	< 1 µL/min/1e6 cells
